# TEST_NAME: Cytotoxicity against human U87MG cells after 3 days by SRB assay
# Format: functional, cell-based, U-87MG ATCC
# CONDITION_PARAMETERS: U-87 MG, 72 h
Note to self: use 1 only for IC50 readings below 5 µM; a reading exactly at 5 µM still gets 0.

Please review the entries below; each comes with its answer.
COMPOUND: C=C(C)C1CC2=C(O1)c1ccc(O)cc1C(=O)C2=O (stereo not drawn) [LANTALUCRATIN C]
ANSWER_LABEL: 0

COMPOUND: C=C(C)C(O)CC1=C(OC)C(=O)c2c(OC)cccc2C1=O (stereo not drawn) [LANTALUCRATIN D]
ANSWER_LABEL: 0

COMPOUND: C=C(C)C(O)CC1=C(OC)C(=O)c2c(OC)ccc(O)c2C1=O (stereo not drawn) [LANTALUCRATIN E]
ANSWER_LABEL: 0

Lab note: IC50 threshold 5 µM. Does this compound come in strictly under it? C=C(C)C1CC2=C(O1)C(=O)c1ccccc1C2=O (stereo not drawn) [DEHYDROISO-ALPHA-LAPACHONE]
1

Lab note: IC50 threshold 5 µM. Does this compound come in strictly under it? C=C(C)C1CC2=C(O1)c1cccc(OC)c1C(=O)C2=O (stereo not drawn) [LANTALUCRATIN A]
1

Lab note: IC50 threshold 5 µM. Does this compound come in strictly under it? CC1(C)CCC2=C(O1)c1ccccc1C(=O)C2=O [LAPACHONE]
1

Lab note: IC50 threshold 5 µM. Does this compound come in strictly under it? C=C(C)C1CC2=C(O1)c1cccc(O)c1C(=O)C2=O (stereo not drawn) [LANTALUCRATIN B]
1

Lab note: IC50 threshold 5 µM. Does this compound come in strictly under it? C=C(C)C1CC2=C(O1)c1ccccc1C(=O)C2=O (stereo not drawn)
1
